B1: library; a variant is named by its letters at N, in order (parent)
chain: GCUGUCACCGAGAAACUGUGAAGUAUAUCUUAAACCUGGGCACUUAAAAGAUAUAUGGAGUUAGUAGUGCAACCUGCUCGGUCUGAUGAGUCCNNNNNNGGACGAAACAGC

variants of: B1; experiment: FACS-Seq fitted mean relative fluorescence mCherry/BFP with ligand (log10 relative fluorescence); HEK293T; ligand: cyclic di-GMP (c-di-GMP-II aptamer); ligand concentration (+) FACS-Seq: 1 mM; higher = higher reporter protein expression; details: ligand present: yes
Please note: criterion met applies when FACS-Seq fitted mean (log10) is 0.07 or greater, and criterion not met applies otherwise.

## Task Could you tell me if the measured FACS-Seq fitted mean (log10) of GCUUAA reaches 0.07 or more?
## Result criterion met

## Task Given the entry UAUAGC , answer whether its FACS-Seq fitted mean (log10) meets or surpasses 0.07.
## Result criterion not met

## Task Hi team, for CGUUAU , is the recorded FACS-Seq fitted mean (log10) at or above 0.07?
## Result criterion not met

## Task Determine whether measured FACS-Seq fitted mean (log10) meets or exceeds 0.07 for UCGUAC
## Result criterion met

## Task Identify whether the reported FACS-Seq fitted mean (log10) of the following variant is 0.07 or greater: GAGCUG
## Result criterion met

## Task Record GUAAAU ; criterion: FACS-Seq fitted mean (log10) no lower than 0.07. Met?
## Result criterion not met

## Task Is FACS-Seq fitted mean (log10) for AUGAUG at or above 0.07?
## Result criterion not met

## Task Record GCUACG ; criterion: FACS-Seq fitted mean (log10) no lower than 0.07. Met?
## Result criterion met

## Task hey, is FACS-Seq fitted mean (log10) for this one >= 0.07? CUAUUA
## Result criterion not met

## Task For this variant, is measured FACS-Seq fitted mean (log10) 0.07 or higher? AUCUGG
## Result criterion not met

## Task Check if FACS-Seq fitted mean (log10) >= 0.07 (inclusive). Item: AAUGGG
## Result criterion not met

## Task Hi, just wondering whether UUCGGC shows FACS-Seq fitted mean (log10) of 0.07 or higher.
## Result criterion not met

## Task Entry GCGCGA : is its FACS-Seq fitted mean (log10) no less than 0.07?
## Result criterion not met

## Task Check the entry UAGUAU : does FACS-Seq fitted mean (log10) equal or exceed 0.07?
## Result criterion met

## Task Kindly determine if FACS-Seq fitted mean (log10) recorded for GUUAAG is above or exactly 0.07.
## Result criterion met

## Task Is FACS-Seq fitted mean (log10) at least 0.07? Consider CCGCAC
## Result criterion met

## Task Tell me whether FACS-Seq fitted mean (log10) is at least 0.07 here: AAAUAA
## Result criterion not met

## Task Reported FACS-Seq fitted mean (log10) reaches at least 0.07 for CCUCAA ?
## Result criterion met

## Task Identify whether the reported FACS-Seq fitted mean (log10) of the following variant is 0.07 or greater: UAUAAA
## Result criterion met

## Task Check this variant for FACS-Seq fitted mean (log10) at or above 0.07: CGGUAC
## Result criterion not met

## Task Has GCCCCA a recorded FACS-Seq fitted mean (log10) greater than or equal to 0.07?
## Result criterion met

## Task Decide: FACS-Seq fitted mean (log10) of AGUAAG >= 0.07?
## Result criterion met

## Task Check this variant for FACS-Seq fitted mean (log10) at or above 0.07: ACGCAG
## Result criterion not met

## Task Has CCUCAG a recorded FACS-Seq fitted mean (log10) greater than or equal to 0.07?
## Result criterion not met

## Task Test whether the variant AUAACG records FACS-Seq fitted mean (log10) of 0.07 or higher.
## Result criterion met

## Task Given the entry AAUACG , answer whether its FACS-Seq fitted mean (log10) meets or surpasses 0.07.
## Result criterion not met

## Task Does the variant CUGUUA have recorded FACS-Seq fitted mean (log10) that is 0.07 or more?
## Result criterion met

## Task Confirm if FACS-Seq fitted mean (log10) reported for the variant UCGGCU is 0.07 or above.
## Result criterion met

## Task Could you verify whether the entry GACCUG shows FACS-Seq fitted mean (log10) of no less than 0.07?
## Result criterion not met

## Task Is FACS-Seq fitted mean (log10) for CACAUA at or above 0.07?
## Result criterion not met

## Task Is the recorded value of FACS-Seq fitted mean (log10) equal to or greater than 0.07 for this variant? UCAGUG
## Result criterion not met

## Task Answer whether FACS-Seq fitted mean (log10) of AGUAAU is greater than or equal to 0.07.
## Result criterion met

## Task # bool: FACS-Seq fitted mean (log10) of CGGGAA >= 0.07
## Result criterion not met

## Task Kindly determine if FACS-Seq fitted mean (log10) recorded for UACUUU is above or exactly 0.07.
## Result criterion met

## Task # check: FACS-Seq fitted mean (log10) of AGAUGC is greater than or equal to 0.07
## Result criterion not met

## Task Hi team, for UCGAAA , is the recorded FACS-Seq fitted mean (log10) at or above 0.07?
## Result criterion not met

## Task Entry ACAAGU : is its FACS-Seq fitted mean (log10) no less than 0.07?
## Result criterion not met

## Task Hello, I need to know if GAAAUA has measured FACS-Seq fitted mean (log10) not below 0.07. Thanks!
## Result criterion met

## Task Decide: FACS-Seq fitted mean (log10) of ACGAGA >= 0.07?
## Result criterion not met

## Task Record UUGUAU ; criterion: FACS-Seq fitted mean (log10) no lower than 0.07. Met?
## Result criterion met

## Task Is it the case that GCUUAG has FACS-Seq fitted mean (log10) reaching or exceeding 0.07?
## Result criterion not met

## Task Please check the record GCCAUA and state if its FACS-Seq fitted mean (log10) is at or above 0.07.
## Result criterion met

## Task Does FACS-Seq fitted mean (log10) meet or surpass 0.07 for UGACGC ?
## Result criterion met

## Task Could you please find out whether ACGUAA has FACS-Seq fitted mean (log10) that meets 0.07 or exceeds it?
## Result criterion met

## Task Kindly determine if FACS-Seq fitted mean (log10) recorded for CAAUCA is above or exactly 0.07.
## Result criterion not met

## Task Is reported FACS-Seq fitted mean (log10) greater than or equal to 0.07 here: AAGGAA
## Result criterion not met

## Task Is reported FACS-Seq fitted mean (log10) greater than or equal to 0.07 here: UCGGCA
## Result criterion not met

## Task Hi, just wondering whether UCAUUU shows FACS-Seq fitted mean (log10) of 0.07 or higher.
## Result criterion not met

## Task Kindly determine if FACS-Seq fitted mean (log10) recorded for AGUAAA is above or exactly 0.07.
## Result criterion met

## Task Could you tell me if the measured FACS-Seq fitted mean (log10) of ACGUGG reaches 0.07 or more?
## Result criterion not met

## Task For this variant, is measured FACS-Seq fitted mean (log10) 0.07 or higher? GUGUGC
## Result criterion not met

## Task Could you verify whether the entry AAAGGA shows FACS-Seq fitted mean (log10) of no less than 0.07?
## Result criterion not met

## Task Does CGUGAC have a reported FACS-Seq fitted mean (log10) of at least 0.07?
## Result criterion met

## Task Test whether the variant UAGUGA records FACS-Seq fitted mean (log10) of 0.07 or higher.
## Result criterion not met

## Task For this variant, is measured FACS-Seq fitted mean (log10) 0.07 or higher? CGGCGC
## Result criterion not met

## Task Threshold query (FACS-Seq fitted mean (log10) >= 0.07) on UAAAGA
## Result criterion met

## Task Item CCCCAC with FACS-Seq fitted mean (log10) of 0.07 or above?
## Result criterion not met

## Task Hello, I need to know if CCUCCC has measured FACS-Seq fitted mean (log10) not below 0.07. Thanks!
## Result criterion not met

## Task Is FACS-Seq fitted mean (log10) for GAGCCU at or above 0.07?
## Result criterion not met

## Task Decide: FACS-Seq fitted mean (log10) of AGAAAA >= 0.07?
## Result criterion not met

## Task Is reported FACS-Seq fitted mean (log10) greater than or equal to 0.07 here: CUCCGU
## Result criterion met

## Task Check the entry UGAUAC : does FACS-Seq fitted mean (log10) equal or exceed 0.07?
## Result criterion met

## Task Can CCUUCU be said to have FACS-Seq fitted mean (log10) at or above 0.07?
## Result criterion not met

## Task Tell me whether FACS-Seq fitted mean (log10) is at least 0.07 here: GCACAC
## Result criterion not met

## Task Does the reported FACS-Seq fitted mean (log10) for AGUGGG fall at or above the 0.07 mark?
## Result criterion not met

## Task Check the entry GUCACG : does FACS-Seq fitted mean (log10) equal or exceed 0.07?
## Result criterion not met

## Task Decide: is the reported value of FACS-Seq fitted mean (log10) for CGUAAA equal to or greater than 0.07?
## Result criterion not met

## Task Reported FACS-Seq fitted mean (log10) reaches at least 0.07 for CCGGAU ?
## Result criterion not met

## Task Reported FACS-Seq fitted mean (log10) reaches at least 0.07 for GUGGUC ?
## Result criterion not met

## Task Check the entry CAUAAA : does FACS-Seq fitted mean (log10) equal or exceed 0.07?
## Result criterion not met

## Task FACS-Seq fitted mean (log10) >= 0.07 for CAUGAA ?
## Result criterion not met

## Task Assess whether reported FACS-Seq fitted mean (log10) for ACCACC sits at 0.07 or higher.
## Result criterion not met

## Task Record GAUACA ; criterion: FACS-Seq fitted mean (log10) no lower than 0.07. Met?
## Result criterion not met

## Task Answer whether FACS-Seq fitted mean (log10) of UUCGUG is greater than or equal to 0.07.
## Result criterion not met

## Task Could you please find out whether ACCCUC has FACS-Seq fitted mean (log10) that meets 0.07 or exceeds it?
## Result criterion not met

## Task # bool: FACS-Seq fitted mean (log10) of UGCAUG >= 0.07
## Result criterion met

## Task Is FACS-Seq fitted mean (log10) for CCCGUA at or above 0.07?
## Result criterion not met

## Task Please check the record UUGGAA and state if its FACS-Seq fitted mean (log10) is at or above 0.07.
## Result criterion met

## Task Reported FACS-Seq fitted mean (log10) at or above 0.07? CGAAGA
## Result criterion not met

## Task Given GACCUA , state whether its FACS-Seq fitted mean (log10) is at least 0.07.
## Result criterion met

## Task Check the entry AAAAUU : does FACS-Seq fitted mean (log10) equal or exceed 0.07?
## Result criterion not met

## Task Is the recorded value of FACS-Seq fitted mean (log10) equal to or greater than 0.07 for this variant? UUACCA
## Result criterion met

## Task Could you please find out whether GCAUAG has FACS-Seq fitted mean (log10) that meets 0.07 or exceeds it?
## Result criterion not met

## Task Does FACS-Seq fitted mean (log10) meet or surpass 0.07 for UAGAUG ?
## Result criterion met

## Task Reported FACS-Seq fitted mean (log10) reaches at least 0.07 for UUACUA ?
## Result criterion met
